# assay.system: Indoleamine 2,3-dioxygenase 1 (Homo sapiens, UniProt P14902)
# Sequence (P14902 whole entry): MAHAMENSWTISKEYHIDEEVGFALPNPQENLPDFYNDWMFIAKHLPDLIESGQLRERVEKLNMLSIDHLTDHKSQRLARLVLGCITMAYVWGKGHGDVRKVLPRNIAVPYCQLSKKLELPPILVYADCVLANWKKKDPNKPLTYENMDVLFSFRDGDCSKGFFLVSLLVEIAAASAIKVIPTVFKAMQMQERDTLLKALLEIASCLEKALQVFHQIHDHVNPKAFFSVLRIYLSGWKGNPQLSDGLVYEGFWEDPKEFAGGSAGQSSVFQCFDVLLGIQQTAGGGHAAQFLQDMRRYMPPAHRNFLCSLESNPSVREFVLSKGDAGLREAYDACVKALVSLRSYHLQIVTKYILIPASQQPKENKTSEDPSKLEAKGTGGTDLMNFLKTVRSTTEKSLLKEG
# assay.protocol: Inhibition of IDO (unknown origin)
metric: IC50 (µM)
Provide the reading as a plain figure in µM.

# input compound: CN1C(=O)C(Cc2c[nH]c3ccccc23)NC1=S (stereo unspecified) ; wanted: its IC50
100

* * *

# assay.system: Receptor-interacting serine/threonine-protein kinase 1 (Homo sapiens, UniProt Q13546)
# Sequence (Q13546 whole entry, the tested form may be a part): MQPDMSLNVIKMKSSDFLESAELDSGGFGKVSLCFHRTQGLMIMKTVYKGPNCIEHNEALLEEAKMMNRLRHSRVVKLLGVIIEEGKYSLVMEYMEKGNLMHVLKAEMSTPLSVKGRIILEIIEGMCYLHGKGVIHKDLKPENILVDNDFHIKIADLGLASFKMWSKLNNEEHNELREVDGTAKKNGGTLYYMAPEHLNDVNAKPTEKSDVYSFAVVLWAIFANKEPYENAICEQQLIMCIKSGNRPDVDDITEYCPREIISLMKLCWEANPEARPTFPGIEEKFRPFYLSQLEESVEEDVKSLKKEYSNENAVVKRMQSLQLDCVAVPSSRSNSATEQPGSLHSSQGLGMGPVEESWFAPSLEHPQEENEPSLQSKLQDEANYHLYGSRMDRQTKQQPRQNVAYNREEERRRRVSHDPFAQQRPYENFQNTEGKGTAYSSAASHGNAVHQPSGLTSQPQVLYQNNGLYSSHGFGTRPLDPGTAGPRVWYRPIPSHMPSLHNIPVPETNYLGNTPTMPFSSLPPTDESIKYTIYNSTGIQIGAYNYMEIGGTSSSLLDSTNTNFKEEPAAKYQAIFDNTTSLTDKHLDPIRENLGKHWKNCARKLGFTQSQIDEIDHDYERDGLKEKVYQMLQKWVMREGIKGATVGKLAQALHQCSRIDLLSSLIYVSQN
# assay.protocol: Inhibition of recombinant human GST-tagged RIPK1 (1 to 479 residues) incubated for 4 hrs by ADP-Glo assay
metric: pIC50
# log scale: pIC50 equals minus log10 of the concentration in mol/L

Sample Cn1cc(-c2ccc3c(c2F)CCN3C(=O)Cc2cccc(C(F)(F)F)n2)c2c(N)ncnc21 — what was its pIC50?
7.16
